Target: T1, Roquin-1 extROQ (mouse, UniProt Q4VGL6 89-404)
T1 sequence: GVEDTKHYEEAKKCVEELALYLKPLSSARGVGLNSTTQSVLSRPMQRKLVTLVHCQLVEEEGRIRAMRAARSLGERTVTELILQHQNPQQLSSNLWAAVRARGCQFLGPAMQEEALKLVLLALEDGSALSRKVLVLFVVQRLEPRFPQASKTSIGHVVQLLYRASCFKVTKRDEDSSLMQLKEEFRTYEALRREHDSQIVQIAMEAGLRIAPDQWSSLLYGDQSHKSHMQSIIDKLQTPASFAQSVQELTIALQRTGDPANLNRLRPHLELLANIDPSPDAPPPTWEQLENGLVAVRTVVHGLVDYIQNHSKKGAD
Test: EMSA; single binding event; EMSA: 150 mM NaCl, 20 mM Tris pH 7.0, 2 mM TCEP, 1 mM MgCl2, 0.6 ug yeast tRNAPhe per 20 ul, 15 min; temperature not stated; gel in 1x TB
Settings: protein: recombinant; tags: tag removed by TEV; label: 5' 32P; 5' single strand plus hairpin
readout name: Kd

Query string: Quick one: Kd of GUAUUUAUGAUUUCCUAUGUAUGCUAUGCAUACUAC (structured_RNA) [extCDE] ?
Result string: ~50 nM
